# Target Or Test System: DGKα (Homo sapiens)
# Test Protocol: Human DGKα kinase activity inhibition assay (ADP-Glo)
# Measurement Setup: in vitro, C-terminally FLAG-tagged recombinant full-length human DGKα, 1,2-dioleoyl-sn-glycerol substrate, ADP-Glo readout
pIC50: −log10 of the molar value.

| Sample Smiles | pIC50 |
| --- | --- |
| CN(C)c1ccc(N2CC3(CCN(c4c(C(N)=O)c(=O)n(C)c5ccccc45)C3)C2)cc1 | 5.76 |
| CN1CCN(c2ccc3c(N4CCC5(CCN(c6cccc(Cl)c6)C5)CC4)c(C#N)c(=O)n(C)c3c2)CC1 | 5.93 |
| CN(C)c1cccc(N2CCC3(CCN(c4c(C#N)c(=O)n(C)c5ccccc45)CC3)C2)c1 | 7.55 |
| Cn1c(=O)c(C#N)c(N2CCC3(CN(c4ccc(Cl)cc4)C3)C2)c2ccc(Br)cc21 | 7.12 |

* * *

# Target Or Test System: DGKα (Homo sapiens, UniProt P23743)
# Sequence (P23743 with tags, fused parts or gaps): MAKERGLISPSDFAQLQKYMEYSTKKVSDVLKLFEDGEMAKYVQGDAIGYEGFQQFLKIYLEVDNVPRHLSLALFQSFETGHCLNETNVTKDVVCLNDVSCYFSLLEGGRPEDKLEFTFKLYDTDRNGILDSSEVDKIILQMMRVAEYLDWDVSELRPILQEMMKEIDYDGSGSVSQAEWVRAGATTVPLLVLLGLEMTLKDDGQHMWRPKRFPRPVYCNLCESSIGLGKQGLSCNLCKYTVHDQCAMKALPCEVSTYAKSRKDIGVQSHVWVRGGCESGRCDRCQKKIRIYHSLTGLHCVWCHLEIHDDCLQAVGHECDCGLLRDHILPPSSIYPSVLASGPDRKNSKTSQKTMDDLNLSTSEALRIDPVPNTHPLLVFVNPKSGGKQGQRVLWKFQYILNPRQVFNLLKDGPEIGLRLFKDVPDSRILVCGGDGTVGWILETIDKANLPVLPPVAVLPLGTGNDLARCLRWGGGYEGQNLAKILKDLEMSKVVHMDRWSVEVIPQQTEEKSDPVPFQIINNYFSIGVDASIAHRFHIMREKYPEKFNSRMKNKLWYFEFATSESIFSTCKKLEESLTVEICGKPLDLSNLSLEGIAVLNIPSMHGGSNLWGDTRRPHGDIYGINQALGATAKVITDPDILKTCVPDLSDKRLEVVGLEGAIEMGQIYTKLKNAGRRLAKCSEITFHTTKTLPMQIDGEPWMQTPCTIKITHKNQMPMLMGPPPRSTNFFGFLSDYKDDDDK
# Test Protocol: Human DGKα kinase activity inhibition assay (ADP-Glo)
# Measurement Setup: in vitro, C-terminally FLAG-tagged recombinant full-length human DGKα, 1,2-dioleoyl-sn-glycerol substrate, ADP-Glo readout
log10 IC50 reference
Reported Endpoint: log10 IC50 (log10 of the value in nM)

| Sample Smiles | log10 IC50 |
| --- | --- |
| Cn1c(=O)c(C(N)=O)c(N2CCC3(CCN(c4ccc(OC(F)(F)F)cc4)C3)CC2)c2ccccc21 | 0.48 |
| Cn1c(=O)c(C#N)c(N2CCC3(CN(c4ccc(Cl)cc4)C3)C2)c2ccccc21 | 1.00 |
| COc1ccccc1N1CCC2(CCN(c3c(C#N)c(=O)n(C)c4ccccc34)CC2)C1 | 1.26 |
| Cn1c(=O)c(C#N)c(N2CCC3(CN(c4ccc(OC(F)(F)F)cc4)C3)C2)c2ccc(Br)cc21 | 1.66 |
| Cn1c(=O)c(C#N)c(N2CCC3(CCN(c4ccc(OC(F)(F)F)cc4)C3)CC2)c2ccccc21 | 1.23 |
| Cn1c(=O)c(C#N)c(N2CCC3(CCN(c4cccc(OC(F)(F)F)c4)C3)CC2)c2ccccc21 | 1.70 |
| Cn1c(=O)c(C#N)c(N2CCC3(CCN(c4ccccc4OC(F)(F)F)C3)CC2)c2ccccc21 | 1.79 |
| CN1CCN(c2ccc3c(N4CCC5(CCN(c6cccc(OC(F)(F)F)c6)C5)CC4)c(C#N)c(=O)n(C)c3c2)CC1 | 2.81 |

Values from patent US20230064809A1
